Assignment: determine reported pKd for the given binders.
TESTED TARGET: T1, huZIP12-ECD-GST (human, UniProt Q504Y0 24-202)
T1 construct: also called hZIP12-ECD-GST; human ZIP12-ECD-GST; not shown: glutathione S-transferase (GST) tag
T1 sequence (Q504Y0 24-202): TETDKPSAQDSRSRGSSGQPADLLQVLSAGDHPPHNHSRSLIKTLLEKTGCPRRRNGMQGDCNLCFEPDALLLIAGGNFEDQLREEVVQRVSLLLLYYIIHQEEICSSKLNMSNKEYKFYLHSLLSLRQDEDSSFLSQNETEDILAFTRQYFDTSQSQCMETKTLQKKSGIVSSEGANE
METHOD DESCRIPTION: SPR single cycle kinetics (Biacore): mAb captured on protein A, huZIP12-ECD-GST injected at 3.12-800 nM
FYI, pKd means -log10 of a concentration in mol per litre.

Prompt: # lookup: pKd of 51B12_VH_L1 (antibody, V domains shown, Fc null human IgG1 / human kappa) VH: QVQLVESGGGVVQPGRSLRLSCAASGFTFSDYGMHWVRQAPGKGLEWVAYISSGGTTIYYADTVKGRFTISRDNSKNTLYLQMNSLRAEDTAVYYCARWTNLYAMDYWGQGTTVTVSS VL: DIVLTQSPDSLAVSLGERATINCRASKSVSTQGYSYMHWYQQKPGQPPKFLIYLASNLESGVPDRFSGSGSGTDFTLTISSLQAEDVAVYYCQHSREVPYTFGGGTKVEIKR
Completion: 9.02

Prompt: # lookup: pKd of H2_T56H_VL-par (antibody, V domains shown, Fc null human IgG1 / human kappa) VH: QVQLVESGGGVVQPGRSLRLSCAASGFTFSDYGMHWVRQAPGKGLEWVAYISSGGHTIYYADTVKGRFTISRDNSKNTLYLQMNSLRAEDTAVYYCARWTNLYAMDYWGQGTTVTVSS VL: DIVLTQSPDSLAVSLGERATINCRASKSVSTSGYSYMHWYQQKPGQPPKFLIYLASNLESGVPDRFSGSGSGTDFTLTISSLQAEDVAVYYCQHSREVPYTFGGGTKVEIKR
Completion: 8.89

Prompt: # lookup: pKd of H2_G66Q_L1 (antibody, V domains shown, Fc null human IgG1 / human kappa) VH: QVQLVESGGGVVQPGRSLRLSCAASGFTFSDYGMHWVRQAPGKGLEWVAYISSGGTTIYYADTVKQRFTISRDNSKNTLYLQMNSLRAEDTAVYYCARWTNLYAMDYWGQGTTVTVSS VL: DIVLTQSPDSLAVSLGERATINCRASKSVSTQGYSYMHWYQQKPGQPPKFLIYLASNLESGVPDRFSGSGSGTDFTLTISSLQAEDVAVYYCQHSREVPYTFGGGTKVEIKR
Completion: 9.01
